Biological target: Aryl hydrocarbon receptor (Homo sapiens) (UniProt P35869)
Sequence (P35869 whole entry, looked up): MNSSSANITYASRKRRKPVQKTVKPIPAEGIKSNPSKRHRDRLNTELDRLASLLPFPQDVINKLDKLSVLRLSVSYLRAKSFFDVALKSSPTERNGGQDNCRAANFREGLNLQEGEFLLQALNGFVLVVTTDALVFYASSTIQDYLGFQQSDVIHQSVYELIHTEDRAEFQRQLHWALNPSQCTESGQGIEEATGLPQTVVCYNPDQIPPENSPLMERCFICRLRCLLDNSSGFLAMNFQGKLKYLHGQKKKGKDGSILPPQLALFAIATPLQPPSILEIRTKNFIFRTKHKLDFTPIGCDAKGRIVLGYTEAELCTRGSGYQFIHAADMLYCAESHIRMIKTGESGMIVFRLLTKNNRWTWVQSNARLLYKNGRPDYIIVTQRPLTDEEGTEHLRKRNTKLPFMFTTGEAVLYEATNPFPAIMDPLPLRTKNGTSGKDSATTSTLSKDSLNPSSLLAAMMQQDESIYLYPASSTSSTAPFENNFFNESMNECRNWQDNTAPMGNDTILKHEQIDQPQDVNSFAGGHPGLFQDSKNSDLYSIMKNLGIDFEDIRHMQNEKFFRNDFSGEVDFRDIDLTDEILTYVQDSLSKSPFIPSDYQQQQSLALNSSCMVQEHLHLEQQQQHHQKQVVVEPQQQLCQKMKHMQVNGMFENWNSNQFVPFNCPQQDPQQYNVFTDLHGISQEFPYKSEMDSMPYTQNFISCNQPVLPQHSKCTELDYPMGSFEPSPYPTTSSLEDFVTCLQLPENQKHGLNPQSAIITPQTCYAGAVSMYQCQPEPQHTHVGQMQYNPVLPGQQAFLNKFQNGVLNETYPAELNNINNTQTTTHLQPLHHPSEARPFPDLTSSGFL
Assay: qHTS assay to identify small molecule that activate the aryl hydrocarbon receptor (AhR) signaling pathway (AID 743085); further: nearly all actives have a fitted effect of over 15% in size;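 on activation: HG2L7.5c1 human HepG2 liver cells with stably integrated DRE-driven firefly reporter; on the % scale 0 is the no-effect control and ±100 the full control effect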
Conditions: HepG2 AhR-luc (HG2L7.5c1), luciferase, 24 h; series mostly up to 70.3 µM
Inconclusive results are not listed. Active and inactive are the calls of the source. The call rests on the fitted dose curve; in most records, active means well fitted activation curve with a large enough effect in the repeat runs; inconclusive means weak or mixed curves; inactive means no such curve, though single readings can be large or run the other way.
Possible outcomes: 1 = active, 0 = inactive

COMPOUND: Nc1ccccc1C(=O)OCCc1ccccc1
CATEGORY: 1
//
COMPOUND: Clc1ccc(Cl)c(Cl)c1
CATEGORY: 0
//
COMPOUND: C[Si](Cn1cncn1)(c1ccc(F)cc1)c1ccc(F)cc1
CATEGORY: 0
//
COMPOUND: O=C(Cl)OCCOCCOC(=O)Cl
CATEGORY: 0
//
COMPOUND: CCc1cnc(C2=NC(C)(C(C)C)C(=O)N2)c(C(=O)O)c1 (stereo unspecified)
CATEGORY: 0
//
COMPOUND: O=[N+]([O-])O[C@H]1CO[C@H]2[C@@H]1OC[C@H]2O[N+](=O)[O-]
CATEGORY: 0
//
COMPOUND: CCC1(CCC(C)C)C(=O)NC(=O)NC1=O
CATEGORY: 0
//
COMPOUND: CCCCCl
CATEGORY: 0
//
COMPOUND: COC1CC(=C(c2cccs2)c2cccs2)C[N+](C)(C)C1 (stereo unspecified)
CATEGORY: 0
//
COMPOUND: CCC(C)(C)c1ccc(O)c(C(C)(C)CC)c1
CATEGORY: 0
//
COMPOUND: CCOP(=S)(S)OCC
CATEGORY: 0
//
COMPOUND: Cc1nc(N(C)C)nc(OC(=O)N(C)C)c1C
CATEGORY: 0
//
COMPOUND: NC(=S)c1c(Cl)cccc1Cl
CATEGORY: 0
//
COMPOUND: O=C(O)c1cc(Cl)ccc1Cl
CATEGORY: 0
//
COMPOUND: CCOP(=S)(OCC)SCSc1cc(Cl)ccc1Cl
CATEGORY: 0
//
COMPOUND: CN[C@@H](C)[C@H](O)c1ccccc1
CATEGORY: 0
//
COMPOUND: C=CC(=O)NC(C)(C)CC(C)=O
CATEGORY: 0
//
COMPOUND: CCCC(C)(COC(N)=O)COC(=O)NC(C)C (stereo unspecified)
CATEGORY: 0
//
COMPOUND: Nc1cc(Cl)cc(C(=O)O)c1Cl
CATEGORY: 0
//
COMPOUND: CCOP(=O)(SC(C)CC)N1CCSC1=O (stereo unspecified)
CATEGORY: 0
//
COMPOUND: O=C(O)COc1cc(Cl)c(Cl)cc1Cl
CATEGORY: 0
//
COMPOUND: CCOC(=O)NC(O)C(Cl)(Cl)Cl (stereo unspecified)
CATEGORY: 0
//
COMPOUND: COC(=O)C1(O)c2ccccc2-c2ccccc21
CATEGORY: 0
//
COMPOUND: Nc1c(Br)cc(Br)c2c1C(=O)c1ccccc1C2=O
CATEGORY: 1
//
COMPOUND: O=C(O)C(F)(F)C(F)(F)C(F)(F)C(F)(F)C(F)(F)C(F)(F)C(F)(F)C(F)(F)F
CATEGORY: 0
//
COMPOUND: Cc1cnc(C2=NC(C)(C(C)C)C(=O)N2)c(C(=O)O)c1 (stereo unspecified)
CATEGORY: 0
//
COMPOUND: CCCCC(CC)CO[N+](=O)[O-] (stereo unspecified)
CATEGORY: 0
//
COMPOUND: O=S(=O)(c1ccccc1)c1ccccc1
CATEGORY: 0
//
COMPOUND: C=CCOC(=O)C(C)(C)OC(=O)c1cc(-n2c(=O)cc(C(F)(F)F)n(C)c2=O)ccc1Cl
CATEGORY: 0
//
COMPOUND: CCN(C(C)=O)c1cccc(-c2ccnc3c(C#N)cnn23)c1
CATEGORY: 0
//
COMPOUND: C=C(C)C(=O)OCCCCOC(=O)C(=C)C
CATEGORY: 0
//
COMPOUND: NC(=O)CF
CATEGORY: 0
//
COMPOUND: CN1CC[C@]23c4c5ccc(O)c4O[C@H]2[C@@H](O)C=C[C@H]3[C@H]1C5
CATEGORY: 0
//
COMPOUND: CC(C)(C#N)C(C)(C)C#N
CATEGORY: 0
//
COMPOUND: CCOC(=O)c1cncn1C(C)c1ccccc1 (stereo unspecified)
CATEGORY: 0
//
COMPOUND: CCc1ccccc1N
CATEGORY: 0
//
COMPOUND: C[C@]12C=CC3=C4CCC(=O)C=C4CC[C@H]3[C@@H]1CC[C@@H]2O
CATEGORY: 0
//
COMPOUND: [Cl-].[Cl-].[Hg+2]
CATEGORY: 0
//
COMPOUND: C=CCOCC1CO1 (stereo unspecified)
CATEGORY: 0
//
COMPOUND: CC(C)c1ccc(NC(=O)N(C)C)cc1
CATEGORY: 1
//
COMPOUND: ClCc1ccccc1Cl
CATEGORY: 0
//
COMPOUND: N#CC(C#N)=Cc1ccc(O)c(O)c1
CATEGORY: 0
//
COMPOUND: O=CC=O
CATEGORY: 0
//
COMPOUND: Oc1cccc(Cl)c1
CATEGORY: 0
//
COMPOUND: CCCCC(CC)COC(=O)c1c(Br)c(Br)c(Br)c(Br)c1C(=O)OCC(CC)CCCC (stereo unspecified)
CATEGORY: 0
//
COMPOUND: O=C(Cc1ccccc1)c1ccccc1
CATEGORY: 0
//
COMPOUND: FC(F)OC(F)(F)C(F)Cl (stereo unspecified)
CATEGORY: 0
//
COMPOUND: N#CC1(N=NC2(C#N)CCCCC2)CCCCC1
CATEGORY: 0
//
COMPOUND: c1ccc2c(c1)sc1ccccc12
CATEGORY: 0
//
COMPOUND: NCCc1cc(O)c(O)cc1O
CATEGORY: 0
//
COMPOUND: O=P(OCC(Br)CBr)(OCC(Br)CBr)OCC(Br)CBr (stereo unspecified)
CATEGORY: 0

---

Target: Glucocorticoid receptor (Homo sapiens)
Assay: qHTS assay to identify small molecule agonists of the glucocorticoid receptor (GR) signaling pathway (AID 720691); on activation: on the % scale 0 is the no-effect control and ±100 the full control effect
Settings: GR-bla HeLa, beta-lactamase reporter ratio, 18 h; series mostly up to 62.4 µM
Active and inactive are the calls of the source. The call rests on the fitted dose curve; in most records, active means well fitted activation curve with a large enough effect in the signal ratio in the repeat runs (not every such curve was filed as active); inconclusive means weak or mixed curves, or effect the other way; inactive means no such curve, though single readings can be large or run the other way; the % refers to the signal ratio.
Possible outcomes: active, inactive

COMPOUND: C=C(C)C(=O)OCCCCOC(=O)C(=C)C
CATEGORY: inactive
--
COMPOUND: CN[C@@H](C)[C@H](O)c1ccccc1
CATEGORY: inactive
--
COMPOUND: CC(C)(C)NCC(O)c1cc(Cl)c(N)c(C(F)(F)F)c1 (centres undefined)
CATEGORY: inactive
--
COMPOUND: O=C([O-])c1ccccn1.O=C([O-])c1ccccn1.O=C([O-])c1ccccn1.[Cr+3]
CATEGORY: inactive
--
COMPOUND: CCCCCCCCCCCCN(C)C
CATEGORY: inactive
--
COMPOUND: COC1=CC(=O)O[C@@H](/C=C/c2ccc3c(c2)OCO3)C1
CATEGORY: inactive
--
COMPOUND: O=C(O)c1cc(I)cc(I)c1I
CATEGORY: inactive
--
COMPOUND: CCCCCl
CATEGORY: inactive
--
COMPOUND: CCCC[N+]1(C)[C@@H]2CC(OC(=O)[C@H](CO)c3ccccc3)C[C@H]1[C@@H]1O[C@@H]12 (some centres undefined)
CATEGORY: inactive
--
COMPOUND: Nc1ccccc1C(=O)OCCc1ccccc1
CATEGORY: inactive
--
COMPOUND: COC(=O)C1(O)c2ccccc2-c2ccccc21
CATEGORY: inactive
--
COMPOUND: C[N+]1(CCC(C(N)=O)(c2ccccc2)c2ccccc2)CCCCC1
CATEGORY: inactive
--
COMPOUND: CC(C)CCON=O
CATEGORY: inactive
--
COMPOUND: CCCC[N+](CCCC)(CCCC)CCCC
CATEGORY: inactive
--
COMPOUND: C[N+]1(CCF)[C@@H]2CC[C@H]1CC(OC(=O)C(O)(c1ccccc1)c1ccccc1)C2 (some centres undefined)
CATEGORY: inactive
--
COMPOUND: O=[N+]([O-])c1cc(Cl)c(Cl)cc1Cl
CATEGORY: inactive
--
COMPOUND: CC(Cc1ccccc1)NCc1ccccc1Cl (centres undefined)
CATEGORY: inactive
--
COMPOUND: c1ccc2c(c1)sc1ccccc12
CATEGORY: inactive
--
COMPOUND: CN1C(=O)CN=C(c2ccccc2)c2cc([N+](=O)[O-])ccc21
CATEGORY: active
--
COMPOUND: CN1CC[C@]23c4c5ccc(O)c4O[C@H]2[C@@H](O)CC[C@H]3[C@H]1C5
CATEGORY: inactive
--
COMPOUND: CC(Oc1cc(Cl)c(Cl)cc1Cl)C(=O)O (centres undefined)
CATEGORY: inactive
--
COMPOUND: CN1CC[C@]23c4c5ccc(O)c4O[C@H]2[C@@H](O)C=C[C@H]3[C@H]1C5
CATEGORY: inactive
--
COMPOUND: CN(C1CCCCC1)C1CCCCC1
CATEGORY: inactive
--
COMPOUND: CCOP(=S)(OCC)SCSc1cc(Cl)ccc1Cl
CATEGORY: inactive
--
COMPOUND: CCOC(=O)c1cn2nc(OP(=S)(OCC)OCC)cc2nc1C
CATEGORY: inactive
--
COMPOUND: COC1CC(=C(c2cccs2)c2cccs2)C[N+](C)(C)C1 (centres undefined)
CATEGORY: inactive
--
COMPOUND: CC(C)c1ccc(NC(=O)N(C)C)cc1
CATEGORY: inactive
--
COMPOUND: CCc1cnc(C2=NC(C)(C(C)C)C(=O)N2)c(C(=O)O)c1 (centres undefined)
CATEGORY: inactive
--
COMPOUND: Clc1ccccc1
CATEGORY: inactive
